Molecular target: human GLP-1 receptor (human, UniProt P43220 24-463)
Assay: cell-based or functional assay
# EC50, cAMP per record follows
Form entry: value (nM) — number only.

BINDER	EC50, cAMP [nM]
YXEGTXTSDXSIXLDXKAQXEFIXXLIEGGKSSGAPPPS (Aib2, αMeF(2F)6, 4Pal10, αMeL13, Orn16, Aib20, D-Glu24, αMeY25, K17 and K31: K(AEEA2-(εK)-CO-(CH2)12-CO2H), C-terminal NH2) [Example 33]	0.37
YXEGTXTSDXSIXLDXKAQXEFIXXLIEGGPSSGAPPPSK (Aib2, αMeF(2F)6, 4Pal10, αMeL13, Orn16, Aib20, D-Glu24, αMeY25, K17 and K40: K(AEEA2-(γ-Glu)-CO-(CH2)10-CH3), C-terminal NH2) [Example 141]	0.0693
YXEGTXTSDXSIXLDXKAQXEFIXXLIXGGKSSGAPPPS (Aib2, αMeF(2F)6, 4Pal10, αMeL13, Orn16, Aib20, D-Glu24, αMeY25, Orn28, K17 and K31: K(AEEA2-(γ-Glu)-CO-(CH2)12-CO2H), C-terminal NH2) [Example 151]	0.546

Q) Quick one: EC50, cAMP of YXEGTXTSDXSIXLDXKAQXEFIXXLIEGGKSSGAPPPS (Aib2, αMeF(2F)6, 1Nal10, αMeL13, Orn16, Aib20, D-Glu24, αMeY25, K17 and K31: K(AEEA2-(γ-Glu)-CO-(CH2)12-CO2H), C-terminal NH2) [Example 56] ?
A) 0.205

Q) Tell me the measured EC50, cAMP of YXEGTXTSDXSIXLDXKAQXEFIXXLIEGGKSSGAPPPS (Aib2, αMeF(2F)6, 4Pal10, αMeL13, Orn16, Aib20, D-Glu24, αMeY25, K17 and K31: K((γ-Glu)-AEEA2-CO-(CH2)12-CO2H), C-terminal NH2) [Example 41] , please.
A) 0.691

Q) Which EC50, cAMP value belongs to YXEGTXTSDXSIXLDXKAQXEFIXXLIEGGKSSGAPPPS (Aib2, αMeF(2F)6, 4Pal10, αMeL13, Orn16, Aib20, D-Glu24, αMeY25, K17 and K31: K((εK)-AEEA2-(γ-Glu)-CO-(CH2)12-CO2H), C-terminal NH2) [Example 37] ?
A) 0.909

Q) Consider the binder shown here: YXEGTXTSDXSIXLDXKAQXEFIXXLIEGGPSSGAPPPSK (Aib2, αMeF(2F)6, 4Pal10, αMeL13, Orn16, Aib20, D-Glu24, αMeY25, K17 and K40: K(AEEA2-(γ-Glu)-CO-(CH2)12-CO2H), C-terminal NH2) [Example 19] What is its recorded EC50, cAMP?
A) 1.34

Q) // EC50, cAMP lookup, key: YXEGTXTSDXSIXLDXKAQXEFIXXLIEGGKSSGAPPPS (Aib2, αMeF(2F)6, 4Pal10, αMeL13, Orn16, Aib20, D-Glu24, αMeY25, K17 and K31: K(AEEA2-CO-(CH2)12-CO2H), C-terminal NH2) [Example 9]
A) 0.421

Q) Quick one: EC50, cAMP for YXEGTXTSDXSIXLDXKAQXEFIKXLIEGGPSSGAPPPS (Aib2, αMeF(2F)6, 4Pal10, αMeL13, Orn16, Aib20, αMeY25, K17 and K24: K(AEEA-(γ-Glu)-CO-(CH2)12-CO2H), C-terminal NH2) [Example 79] ?
A) 0.223
